biological target: NMDA receptor (NR1 subunit and NR2B subunit) (Mus musculus, UniProt P35438+Q01097); construct: expressed in transfected cells; host or cells: HEK293 cells, transient transfection with pcDNA3.1 plasmids; experiment: Measurement of expression of NMDA receptor and Ca ion influx amount (glutamic acid/glycine-induced, HEK293 cell co-expressing NR1 and NR2B subunits, Fluo-3/AM); format: cell-based; details: Ca ion influx induced with 20 μM glutamic acid/2 μM glycine, HEK293 cell with mouse NR1/NR2B; read-out: Ca2+ IC50
Sequence (Q01097 27-1482, other chains not shown): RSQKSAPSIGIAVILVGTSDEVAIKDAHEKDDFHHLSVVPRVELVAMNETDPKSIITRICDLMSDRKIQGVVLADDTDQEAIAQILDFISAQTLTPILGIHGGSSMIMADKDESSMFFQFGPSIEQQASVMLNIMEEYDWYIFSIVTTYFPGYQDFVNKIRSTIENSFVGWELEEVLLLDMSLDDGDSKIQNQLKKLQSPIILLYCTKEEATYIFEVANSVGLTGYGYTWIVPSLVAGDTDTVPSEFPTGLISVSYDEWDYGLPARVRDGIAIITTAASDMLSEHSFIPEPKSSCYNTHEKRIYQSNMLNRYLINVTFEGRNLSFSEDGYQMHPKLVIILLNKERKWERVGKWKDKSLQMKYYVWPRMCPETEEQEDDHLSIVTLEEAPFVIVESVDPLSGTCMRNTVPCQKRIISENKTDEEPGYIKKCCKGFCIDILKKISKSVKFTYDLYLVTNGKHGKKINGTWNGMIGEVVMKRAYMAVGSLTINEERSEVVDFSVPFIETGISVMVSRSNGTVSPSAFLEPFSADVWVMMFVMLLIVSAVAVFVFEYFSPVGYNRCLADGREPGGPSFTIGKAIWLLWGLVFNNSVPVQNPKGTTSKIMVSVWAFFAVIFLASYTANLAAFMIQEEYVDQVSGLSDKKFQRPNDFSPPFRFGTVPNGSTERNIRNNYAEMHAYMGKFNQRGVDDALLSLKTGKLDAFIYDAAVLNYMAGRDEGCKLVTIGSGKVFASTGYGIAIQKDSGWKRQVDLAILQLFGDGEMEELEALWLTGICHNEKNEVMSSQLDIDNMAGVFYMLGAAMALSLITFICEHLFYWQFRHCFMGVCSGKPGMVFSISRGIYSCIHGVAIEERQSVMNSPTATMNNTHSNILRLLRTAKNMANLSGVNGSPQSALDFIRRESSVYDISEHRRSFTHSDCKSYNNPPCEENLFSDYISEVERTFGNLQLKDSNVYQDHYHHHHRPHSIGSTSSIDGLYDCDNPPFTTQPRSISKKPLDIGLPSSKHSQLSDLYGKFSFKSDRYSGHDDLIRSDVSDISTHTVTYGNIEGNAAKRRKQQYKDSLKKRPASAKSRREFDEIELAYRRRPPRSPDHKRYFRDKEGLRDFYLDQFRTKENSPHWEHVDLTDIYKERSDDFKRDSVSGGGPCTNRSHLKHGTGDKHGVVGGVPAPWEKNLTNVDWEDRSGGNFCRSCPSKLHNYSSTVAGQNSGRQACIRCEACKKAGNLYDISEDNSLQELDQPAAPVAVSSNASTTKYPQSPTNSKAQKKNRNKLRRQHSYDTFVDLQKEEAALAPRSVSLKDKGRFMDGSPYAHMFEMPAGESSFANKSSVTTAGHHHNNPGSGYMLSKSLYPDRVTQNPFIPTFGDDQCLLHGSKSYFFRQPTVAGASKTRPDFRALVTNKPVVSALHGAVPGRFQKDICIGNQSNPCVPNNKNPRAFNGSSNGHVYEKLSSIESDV
RECORDED METRIC: pIC50
Give only the number. pIC50 is defined as minus log10 of concentration in molar units.

Query: pIC50; subject: `O=C(Nc1ccc2[nH]c(=O)[nH]c2c1)C(=O)N1CCN(c2ccc(Cl)cc2)CC1`
7.96

Query: pIC50; subject: `O=C(Nc1cnc2[nH]c(=O)oc2c1)C(=O)N1CCN(c2ccc(Cl)c(Cl)c2)CC1`
8.00

Query: pIC50; subject: `O=C(CC1(O)CCN(c2ccc(Cl)cc2)CC1)Nc1ccc2[nH]c(=O)oc2c1`
7.70

Query: pIC50; subject: `O=C(NCCC1CCN(c2ccc(C(F)(F)F)cn2)CC1)c1ccc(=O)[nH]c1`
7.41

Query: pIC50; subject: `O=C(CCC1CCN(c2ccc(C(F)(F)F)cc2)CC1)Nc1ccc(=O)[nH]c1`
7.43

Query: pIC50; subject: `O=C(Nc1ccc2[nH]c(=O)oc2c1)C(=O)N1CCN(c2ccc(Cl)cc2)CC1`
8.10

Query: pIC50; subject: `O=C(Nc1cnc2[nH]c(=O)oc2c1)C(=O)N1CCN(c2ccc(Br)cc2)CC1`
7.29

Query: pIC50; subject: `O=C(Nc1ccc2[nH]c(=O)oc2c1)C(=O)N1CCN(c2ccc(F)c(Cl)c2)CC1`
8.05

====

target: NR1/NR2B receptor (Rattus norvegicus, UniProt P35439+Q00960); construct: from tissue; host or cells: rat cerebral cortex membranes (male Slc: Wistar rat); assay: Test of binding with NMDA receptor (NR1/NR2B receptor): competition with [3H]-Ifenprodil on rat cerebral cortex membrane specimen; conditions: [3H]-Ifenprodil 5 nM, GBR-12909 3 μM, rat cerebral cortex membranes, ice temperature 120 minutes; read-out: NR2B (IC50 μM)
Sequence (Q00960 27-1482, other chains not shown): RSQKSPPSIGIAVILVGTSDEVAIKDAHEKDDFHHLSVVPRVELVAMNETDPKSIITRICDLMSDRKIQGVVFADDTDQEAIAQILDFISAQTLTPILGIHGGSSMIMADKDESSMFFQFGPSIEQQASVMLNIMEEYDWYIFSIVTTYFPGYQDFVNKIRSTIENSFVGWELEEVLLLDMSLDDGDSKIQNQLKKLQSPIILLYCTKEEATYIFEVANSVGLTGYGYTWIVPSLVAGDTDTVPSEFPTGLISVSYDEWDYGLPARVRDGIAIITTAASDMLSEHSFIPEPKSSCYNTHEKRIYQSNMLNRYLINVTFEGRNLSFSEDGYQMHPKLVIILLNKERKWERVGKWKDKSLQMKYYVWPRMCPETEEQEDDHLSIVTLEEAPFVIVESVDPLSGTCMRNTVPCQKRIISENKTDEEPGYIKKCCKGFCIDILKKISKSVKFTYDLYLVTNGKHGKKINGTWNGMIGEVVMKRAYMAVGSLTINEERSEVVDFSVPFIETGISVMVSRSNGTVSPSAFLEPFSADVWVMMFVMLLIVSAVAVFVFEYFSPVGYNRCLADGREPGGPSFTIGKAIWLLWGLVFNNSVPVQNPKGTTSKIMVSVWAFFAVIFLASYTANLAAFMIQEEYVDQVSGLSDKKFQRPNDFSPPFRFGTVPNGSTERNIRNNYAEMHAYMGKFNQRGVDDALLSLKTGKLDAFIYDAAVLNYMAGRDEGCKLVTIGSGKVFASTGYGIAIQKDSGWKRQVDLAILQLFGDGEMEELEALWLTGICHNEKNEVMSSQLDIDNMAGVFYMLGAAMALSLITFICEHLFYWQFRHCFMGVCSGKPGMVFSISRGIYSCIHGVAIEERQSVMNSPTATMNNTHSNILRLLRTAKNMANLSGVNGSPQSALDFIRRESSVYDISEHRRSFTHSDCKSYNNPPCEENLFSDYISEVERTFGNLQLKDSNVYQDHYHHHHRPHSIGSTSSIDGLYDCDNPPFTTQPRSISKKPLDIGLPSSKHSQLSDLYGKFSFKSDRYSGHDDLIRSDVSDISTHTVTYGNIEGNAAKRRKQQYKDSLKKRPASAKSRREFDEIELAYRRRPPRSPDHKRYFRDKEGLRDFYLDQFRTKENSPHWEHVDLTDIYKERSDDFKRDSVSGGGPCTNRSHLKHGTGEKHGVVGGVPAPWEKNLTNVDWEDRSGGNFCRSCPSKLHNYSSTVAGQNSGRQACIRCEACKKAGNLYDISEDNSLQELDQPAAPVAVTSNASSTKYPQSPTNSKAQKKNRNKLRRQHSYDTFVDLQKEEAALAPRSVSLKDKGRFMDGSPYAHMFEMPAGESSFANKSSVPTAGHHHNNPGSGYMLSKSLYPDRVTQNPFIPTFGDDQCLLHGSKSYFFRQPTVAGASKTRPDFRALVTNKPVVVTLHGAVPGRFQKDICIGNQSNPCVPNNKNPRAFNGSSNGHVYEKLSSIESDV
Assign IC50 to each entry below.
All answers are understood in µM, so give the number only.

Query: IC50; subject: O=C(Nc1ccc2[nH]c(=O)sc2c1)C(=O)N1CCN(c2ccc(Cl)cc2)CC1 [Compound I-90]
0.026

Query: IC50; subject: O=C(Nc1ccc2[nH]c(=O)oc2c1)C(=O)N1CCN(c2ccc(Cl)c(Cl)c2)CC1 [Compound I-104]
0.016

Query: IC50; subject: O=C(Nc1ccc2[nH]c(=O)[nH]c2c1)C(=O)N1CCN(c2ccc(C(F)(F)F)cc2)CC1 [Compound I-79]
0.013

Query: IC50; subject: O=C(Nc1ccc2[nH]c(=O)oc2c1)C(=O)N1CCN(c2ccc(C(F)(F)F)cc2)CC1 [Compound I-55]
0.025

Query: IC50; subject: O=C(Nc1ccc2[nH]c(=O)oc2c1)C(=O)N1CCN(c2ccc(Cl)cc2)CC1 [Compound I-73]
0.015

Query: IC50; subject: C[C@@H]1CN(C(=O)C(=O)Nc2ccc3[nH]c(=O)oc3c2)CCN1c1ccc(Cl)cc1 [Compound I-177]
0.059

Query: IC50; subject: O=C(Nc1ccc2[nH]c(=O)oc2c1)C(=O)N1CCCN(c2ccc(Cl)c(F)c2)CC1 [Compound I-154]
0.044

Query: IC50; subject: O=C(NCCC1CCN(c2ccc(Cl)c(Cl)c2)CC1)c1ccc(=O)[nH]c1 [Compound I-196]
0.023
